System: MKL-1 cells (VP-MCC)
Experiment: qHTS cell viability (CellTiter-Glo, 72 h; primary and follow-up small molecule screen)
Type: cell-based, human
Details: area under the dose-response curve, MKL-1 cells; AUC<450 = reduced viability
The entries below come with measured MKL1_AUC values attached.
Reply briefly: the number, and no unit.

For this molecule ( Oc1ccc(O)cc1 [Hydroquinone] ), measured MKL1_AUC is 415.173

---

// reported Percent viability for each item listed
System: MCC26 cells (VN-MCC)
Experiment: qHTS cell viability (CellTiter-Glo, 72 h; primary and follow-up small molecule screen)
Format: cell-based, human
Details: MCC26, 72h, Log (M) -6.2907
Express it in %; write the number only.

COMPOUND	Percent viability, %
CCS(=O)(=O)c1cccc(-c2cc(C(=O)NC3CCN(C)CC3)c(C)c3[nH]c4ncc(C)cc4c23)c1 [TAK-901, reference compound]	33.0
CCn1cc(-c2ccnc3[nH]c(-c4cccc(CN(C)C)c4)cc23)c(-c2ccc(NC(=O)N(C)C)cc2)n1 [GSK-1070916A, reference compound]	42.5
Cc1cc(Nc2cc(N3CCN(C)CC3)nc(Sc3ccc(NC(=O)C4CC4)cc3)n2)[nH]n1 [Tozasertib, reference compound]	79.7

Turning now to a further compound:
The compound O=C(Nc1cccc(Cl)c1)Nc1ncc(CCNc2ncnc3ccsc23)s1 [SNS-314, reference compound] , tested on MCC26 cells (VN-MCC), showed Percent viability of 86.8
